Target: Motilin Receptor (Oryctolagus cuniculus)
Construct: The muscle tissue was homogenized in 10 volumes of 50 mM Tris-Cl; from tissue; host or cells: rabbit colon smooth muscle, crude membrane homogenate
Experiment: Motilin receptor binding, rabbit colon membranes, 125I porcine motilin
Set-up: dose or concentration left out as unconfirmed
Settings: rabbit colon membranes
Classification field: enter rule met for Rabbit Colon % Inh values not below 8%, rule not met for values below it.

molecule="O=C(c1ccc(F)cc1)N(CC1CCCC(N(Cc2cccc(Cl)c2)C(=O)CCC2CCCC2)C1)c1cccc(OCCN2CCOCC2)c1 (stereo not drawn)" grouplabel="rule met"
molecule=CCN(Cc1ccccc1)C(=O)CCCN(c1cccc(OCCN2CCOCC2)c1)S(=O)(=O)c1ccc(C)cc1 grouplabel="rule met"
molecule=Cc1ccc(C(=O)N(CCCCC(=O)N(Cc2ccccc2)Cc2ccccc2)c2cccc(OCCN3CCOCC3)c2)cc1 grouplabel="rule met"
molecule="O=C(Nc1ccccc1)N(CC1CCCC(N(Cc2ccccc2)C(=O)c2ccc(-c3ccccc3)cc2)C1)c1cccc(OCCN2CCOCC2)c1 (stereo not drawn)" grouplabel="rule not met"
molecule="O=C(c1ccc(F)cc1)N(CC1CCCC(N(Cc2cccc(Cl)c2)C(=O)c2cc(C(F)(F)F)cc(C(F)(F)F)c2)C1)c1cccc(OCCN2CCOCC2)c1 (stereo not drawn)" grouplabel="rule met"

---

Target: Motilin Receptor (Oryctolagus cuniculus, UniProt G1T803)
Construct: The muscle tissue was homogenized in 10 volumes of 50 mM Tris-Cl; from tissue; host or cells: rabbit colon smooth muscle, crude membrane homogenate
Sequence (G1T803 1-400): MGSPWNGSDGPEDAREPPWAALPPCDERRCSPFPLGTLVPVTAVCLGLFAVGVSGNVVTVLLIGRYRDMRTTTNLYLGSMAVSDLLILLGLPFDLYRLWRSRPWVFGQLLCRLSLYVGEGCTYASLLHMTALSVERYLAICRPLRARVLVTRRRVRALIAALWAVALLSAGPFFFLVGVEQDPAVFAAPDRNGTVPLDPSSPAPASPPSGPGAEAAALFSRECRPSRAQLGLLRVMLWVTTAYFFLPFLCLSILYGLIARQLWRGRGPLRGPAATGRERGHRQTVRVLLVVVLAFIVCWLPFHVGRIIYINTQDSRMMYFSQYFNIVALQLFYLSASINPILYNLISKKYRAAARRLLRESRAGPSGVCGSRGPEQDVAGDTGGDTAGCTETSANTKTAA
Experiment: Motilin receptor binding, rabbit colon membranes, 125I porcine motilin
Design: dose or concentration left out as unconfirmed
Conditions: rabbit colon membranes; read-out: Rabbit Colon % Inh
observedProperty: inhibition (%)

molecule="O=C(CCCC(=O)N(Cc1ccc(F)cc1)c1cccc(OCCN2CCCC2)c1)N(CCc1ccccc1)Cc1cccc([N+](=O)[O-])c1 [compound 197]" observedproperty=inhibition unitsymbol=% measuredvalue=85
molecule="CCN(CC)CCOc1cccc(N(CC2CCCC(N(Cc3cccc(Cl)c3)C(=O)C(C)(C)C)C2)C(=O)c2ccc(F)cc2)c1 (stereo not drawn) [compound 233]" observedproperty=inhibition unitsymbol=% measuredvalue=89
molecule="O=C(c1ccc(F)cc1)N(CC1CCCC(N(Cc2ccccn2)C(=O)C(Cl)(Cl)Cl)C1)c1cccc(OCCN2CCOCC2)c1 (stereo not drawn) [compound 90]" observedproperty=inhibition unitsymbol=% measuredvalue=95
molecule="Cc1c(OCCN2CCCC2)cccc1N(CC1CCCC(N(Cc2cccc(Cl)c2)C(=O)C(Cl)(Cl)Cl)C1)C(=O)c1ccc(F)cc1 (stereo not drawn) [compound 209]" observedproperty=inhibition unitsymbol=% measuredvalue=84
molecule="O=C(CCCC(=O)N(Cc1ccc(F)cc1)c1cccc(OCCN2CCCC2)c1)N(CCc1ccccc1)Cc1cc(Cl)cc(Cl)c1 [compound 199]" observedproperty=inhibition unitsymbol=% measuredvalue=91
molecule="O=C(Nc1ccccc1)N(CC1CCCC(N(Cc2ccccc2)C(=O)C(Cl)(Cl)Cl)C1)c1cccc(OCCN2CCCC2)c1 (stereo not drawn) [compound 224]" observedproperty=inhibition unitsymbol=% measuredvalue=98

---

Molecular target: Motilin Receptor (Oryctolagus cuniculus, UniProt G1T803)
Construct: The muscle tissue was homogenized in 10 volumes of 50 mM Tris-Cl; from tissue; host or cells: rabbit colon smooth muscle, crude membrane homogenate
Test: Motilin receptor binding, rabbit colon membranes, 125I porcine motilin
Parameters: dose or concentration left out as unconfirmed
Conditions: rabbit colon membranes
Method: Rabbit colon was removed, dissected free from the mucosa and serosa, and diced into small pieces. […] The pellet was washed twice with 1 ml of cold saline, the supernatant was aspirated, and the pellet at the bottom of the tube counted in a gamma counter. Non-specific binding was determined by the inclusion of 1 mM of unlabeled motilin. IC50 values were determined from Kaleidograph curves.
observedProperty: Rabbit Colon % Inh (%)

compound="O=C(c1ccc(F)cc1)N(CC1CCCC(N2C(=O)CC3(CCCC3)CC2=O)C1)c1cccc(OCCN2CCOCC2)c1 (stereo not shown)" observedproperty="Rabbit Colon % Inh" measuredvalue=25
compound="O=C(c1ccc(F)cc1)N(CC1CCCC(N(Cc2ccc(Cl)cc2)C(=O)C(Cl)(Cl)Cl)C1)c1cccc(OCCN2CCOCC2)c1 (stereo not shown)" observedproperty="Rabbit Colon % Inh" measuredvalue=51
compound=CC(C)(C)CN(Cc1ccccc1)C(=O)c1cccc(CN(C(=O)c2ccc(F)cc2)c2cccc(OCCN3CCOCC3)c2)c1 observedproperty="Rabbit Colon % Inh" measuredvalue=45
compound=CN(Cc1ccccc1)C(=O)CCCCN(C(=O)c1ccc(F)cc1)c1cccc(OCCN2CCOCC2)c1 observedproperty="Rabbit Colon % Inh" measuredvalue=23
compound=CCN(Cc1ccccc1)C(=O)CCCN(C(=O)c1ccc(C)cc1)c1cccc(OCCN2CCOCC2)c1 observedproperty="Rabbit Colon % Inh" measuredvalue=29
compound="COc1cccc(CN(C(=O)C(Cl)(Cl)Cl)C2CCCC(CN(C(=O)Nc3ccccc3)c3cccc(OCCN4CCOCC4)c3)C2)c1 (stereo not shown)" observedproperty="Rabbit Colon % Inh" measuredvalue=55
compound="COc1cccc(C(=O)N(Cc2ccccc2)C2CCCC(CN(C(=O)Nc3ccccc3)c3cccc(OCCN4CCOCC4)c3)C2)c1 (stereo not shown)" observedproperty="Rabbit Colon % Inh" measuredvalue=58
